system.name: STING (Homo sapiens)
Sequence (Q86WV6 whole entry): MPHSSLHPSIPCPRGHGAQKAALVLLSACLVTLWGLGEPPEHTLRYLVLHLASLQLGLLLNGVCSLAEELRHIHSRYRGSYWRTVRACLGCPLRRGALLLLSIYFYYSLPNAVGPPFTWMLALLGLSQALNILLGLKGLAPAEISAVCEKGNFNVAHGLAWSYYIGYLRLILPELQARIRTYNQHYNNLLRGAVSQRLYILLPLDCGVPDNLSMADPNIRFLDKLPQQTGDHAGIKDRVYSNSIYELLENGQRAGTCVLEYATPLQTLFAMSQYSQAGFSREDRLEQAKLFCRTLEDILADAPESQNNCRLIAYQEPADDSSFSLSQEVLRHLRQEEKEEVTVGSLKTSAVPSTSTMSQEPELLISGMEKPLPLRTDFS
protocol.description: IFN-β secretion from THP1 by STING activation (hIFNβ ELISA)
Assay type: cell-based
conditions: THP1 cells; 24 h incubation; IFN-β in supernatant; top dose set according to solubility; read-out: hIFNβ ELISA (EC50)
pEC50: −log10 of the molar value.
quantity.measured: pEC50

A selection of reference data follows.
{"mol": "CCn1nc(C)cc1C(=O)Nc1nc2cc(C(N)=O)cc(OCCCNS(=O)(=O)C3CCNCC3)c2n1CCC[C@H]1COc2cc(C(N)=O)cc3nc(NC(=O)c4cc(C)nn4CC)n1c23", "system.name": "STING (Homo sapiens)", "recorded.measurement": "< 4.30"}
{"mol": "CCn1nc(C)cc1C(=O)Nc1nc2cc(C(N)=O)cc3c2n1[C@@H](CCCn1c(NC(=O)c2cc(C)nn2CCF)nc2cc(C(N)=O)cc(OCCCOC)c21)CO3", "system.name": "STING (Homo sapiens)", "recorded.measurement": "< 5.04"}
{"mol": "CCn1nc(C)c(Br)c1C(=O)Nc1nc2cc(C(N)=O)cc3c2n1[C@@H](CCCn1c(NC(=O)c2cc(C)nn2CCF)nc2cc(C(N)=O)cc(OCCCOC)c21)CO3", "system.name": "STING (Homo sapiens)", "recorded.measurement": "< 5.52"}
{"mol": "CCn1nc(C)cc1C(=O)Nc1nc2cc(C(N)=O)cc(OCCCNS(C)(=O)=O)c2n1CCC[C@H]1COc2cc(C(N)=O)cc3nc(NC(=O)c4cc(C)nn4CC)n1c23", "system.name": "STING (Homo sapiens)", "recorded.measurement": "< 4.89"}

Now turn to the next molecule.
Input: Name the recorded pEC50 for CCn1nc(C)c2c1C(=O)Nc1nc3cc(C(N)=O)cc(OCCCOC)c3n1CCC[C@H]1COc3cc(C(N)=O)cc4nc(n1c34)NC(=O)c1cc(C)nn1CCCCC2 .
Output: < 5.25

---

system.name: STING HAQ variant (Homo sapiens, UniProt Q86WV6, G230A/R293Q/R71H)
Construct: host or cells: HEK-Blue ISG KO-STING cells (Invivogen, hkb-kostg)
Sequence (Q86WV6 whole entry R71H/G230A/R293Q): as the sequence (Q86WV6 whole entry) above, with R71H, G230A, R293Q counted along it
protocol.description: SEAP reporter assay in HEK-Blue ISG KO-STING cells transfected with STING HAQ variant (Method 1)
Type: cell-based
conditions: 1 ng STING vector, compound 5 uM, 24 h, SEAP signal vs 0.5% DMSO
Parameter Fold change related to DMSO control HAQ: see the listing below.
Answer as a number with no unit attached.

Input: Consider the compound COCCCOc1cc(C(N)=O)cc2nc(NC(=O)c3cc(C)nn3CCF)n(CCC[C@H]3COc4cc(C(N)=O)cc5nc(NC(=O)c6cc(C)nn6CCF)n3c45)c12 [Example 10] and give its measured Fold change related to DMSO control HAQ.
Output: 16.63

Input: Using the record for CCn1nc(C)cc1C(=O)Nc1nc2cc(C(N)=O)cc(OCCNC)c2n1CCC[C@H]1COc2cc(C(N)=O)cc3nc(NC(=O)c4cc(C)nn4CC)n1c23 [Example 16] , report its Fold change related to DMSO control HAQ.
Output: 20.47

Input: Give its Fold change related to DMSO control HAQ value. Item: CCn1nc(C)cc1C(=O)Nc1nc2cc(C(N)=O)cc(OCCCNC)c2n1CCC[C@H]1COc2cc(C(N)=O)cc3nc(NC(=O)c4cc(C)nn4CC)n1c23.Cl [Example 17]
Output: 33.85
